For each entry below, report its AtheNA signal value.
- ASSAYED_SYSTEM: T1, Sm (sphingomyelin)
- T1 construct: in an ANA panel of nuclear antigens Sm is usually the Smith ribonucleoprotein antigen; Kept, but see recheck
- METHOD_SUMMARY: AtheNA Multi-Lyte ANA, Ab at 12.5 ug/ml;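 note: monoclonal antibodies screened for binding to a panel of nuclear autoantigens (SSA, SSB, Sm, RNP, Scl-70, Jo-1, dsDNA, CentB, histones), with anti-HIV and anti-RSV antibodies as controls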
Answer field: number only, no words.

For Ab7960/293i (antibody, IgG1, V domains shown, Recombinant human antibody with IgG1 heavy chain backbone and kappa light chain constant; they begin at LVESGGG and MTQSP; also called mAb 7960; mAb7960) VH: LVESGGGVVQPGKSLRLSCVASGFSFSTYGMHWVRQAPGKGLEWVAVMSFDGKTKYYADSVKGRFTISRDNPKNTLYLQMNSLRSEDTAVYYCAKGGAAAAVFDSWGPGILLTVSS VL: MTQSPNSLAVSLGGRATINCKASQSILYRSNNKNYLAWYQHKAGQPPKLLIYWASTRESGVPERFSGSGSRTDFTLTINGLQAEDVAVYYCQQYYNPPWTFGQGTKVEIK , what is its reported AtheNA signal? 4

For Ab7957/293i (antibody, IgG1, V domains shown, Recombinant human antibody with IgG1 heavy chain backbone and kappa light chain constant; they begin at LVESGGG and MTQSP; also called Ab7957i; mAb 7957) VH: LVESGGGVVPPGKSLRLSCAASGFTFSLYGIHWVRQAPGKGLEWVAVISYDGNTKYYTDSVKGRFTISRDNAKNTIYLQMNSLRLDDTAVYYCAKGAANSATFDFWGRGTMVTVSS VL: MTQSPDSLTLSLGERATINCRSSRTVLYRSNNKNYLAWYQHKPGQPPKLLMSWASTRETGVPDRFSGSGSGTHFTLTITSLQPEDVAVYYCQQYYSPPWTFGQGTKVEIR , what is its reported AtheNA signal? 1

I have this binder here, Ab7961/293i (antibody, IgG1, V domains shown, Recombinant human antibody with IgG1 heavy chain backbone and kappa light chain constant; they begin at LVESGGG and MTQSP; also called mAb 7961; clone 24) VH: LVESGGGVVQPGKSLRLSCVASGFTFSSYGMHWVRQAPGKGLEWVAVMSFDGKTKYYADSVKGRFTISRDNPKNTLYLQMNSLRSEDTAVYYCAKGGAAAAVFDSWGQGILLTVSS VL: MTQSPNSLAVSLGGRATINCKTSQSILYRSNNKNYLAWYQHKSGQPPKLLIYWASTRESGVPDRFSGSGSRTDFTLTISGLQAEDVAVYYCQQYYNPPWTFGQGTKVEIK , and I need its recorded AtheNA signal. 5

# query: AtheNA signal of entry Ab7962/293i (antibody, V domains shown, Recombinant human antibody with IgG1 heavy chain backbone and kappa light chain constant (IgM in the donor B cell); they begin at LVESGGG and MTQSL; also called clone 27; pH007962/pK005996) VH: LVESGGGLVQPGGSLRLSCAASGFTFSSYEMNWVRQAPGKGLEWVSYISSSGSTIYYADSVKGRFTISRDNAKNSLYLQMNSLRAEDTAVYYCARVEQLAPSPYMDVWGKGTTVTVSS VL: MTQSLDSLTVSLGERATINCKSSQSLLYTSNNKNYLAWYQQKSGQPPKLLIYWASIRDSGVPDRFSGSGSATDFTLTINNLQAEDVAVYFCQQYYKTPLTFGGGTKVEVR 3
